Test system: Plasmodium falciparum Sir2 (PF13_0152, Sir2A)
RUN_DESCRIPTION: Plasmodium falciparum Sir2A binding compounds – biochemical, small-molecule microarray, 635 nm fluorescence, primary screen (AID 1098);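 also: score merges spot fluorescence intensity with its signal-to-noise ratio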
RECORDED_CONDITIONS: fluorescence 635 nm, higher = more signal
The following molecules are listed with their measured composite z-score values.
Provide a numeric answer; units are not to be included.

[[record]]
entry_smiles = "COC(=O)c1c(CC[C@@H](CO)NC(=O)Nc2ncn[nH]2)oc(C(=O)Cc2ccccc2)c1C(=O)OC"
val = 0.0638


[Q] # input molecule: "COC(=O)[C@@]1(Cc2ccc(OC)cc2)[C@H]2c3cc(C(=O)N(C)C)n(Cc4ccc(OC)c(OC)c4)c3C[C@H]2CN1C(=O)c1ccccc1" ; wanted: its composite z-score
[A] 0.851

[Q] One more molecule: "COC(=O)C(CC#Cc1ccc2c(c1)[C@]1(C(=O)N2)[C@H](C(=O)N2CCCCCCC2)[C@H]2C(=O)O[C@H](c3ccccc3)[C@H](c3ccccc3)N2[C@@H]1c1ccccc1OCCO)C(=O)OC"
[A] 2.14

[Q] What do we get for "CCCC[C@@H]1C[C@H]1[C@@H](NC(=O)c1ccco1)c1ccccc1" ?
[A] -1.69
